Assay: Acute toxicity study in animals (oral LD50)
Conditions: mouse, in vivo, male ICR mice, intragastric administration, observed 14 days, hydrochloride salts
Protocol: Male ICR mice weighed 23±2 g, clean grade, were selected. The route of administration was intragastric (ig) administration, which is consistent with the intended oral route for clinical use. […] Study procedures: 160 mice were randomized into 8 groups of 20 mice by body weight. […] The daily dose of each group was calculated; the control group received equal volumes of water and was subjected to an acute toxicity study for observation and the body weight of the mice was recorded daily for 14 days.
Structures can show the parent of a compound that is named as a salt.

{"columns": ["compound", "LD50 [mg/kg]"],
 "data": [
  ["CCOc1ccc(/C=C\\c2cc(OC)c(OC)c(OC)c2)cc1NC(=O)CCNCC(F)F [Hydrochloride of Example 13]", 1000],
  ["CCCCN(CCCC)CCC(=O)Nc1cc(/C=C\\c2cc(OC)c(OC)c(OC)c2)ccc1OC [Hydrochloride of Example 6]", 900],
  ["COc1ccc(/C=C\\c2cc(OC)c(OC)c(OC)c2)cc1NC(=O)CCN(CCO)CCO [Hydrochloride of Example 12]", 1100]
]}
